Consider the following compounds and their measured ε (molar absorbance coefficient) readings.
# assay-method-text: Absorption spectrum of n-decane solution (absorption maximum wavelength, molar absorbance coefficient, color)
# Assay type: physicochemical
# setup-conditions: n-decane solution, at absorption maximum wavelength

- compound: "CCCCC(CC)COC(=O)c1cc(C#N)c(N=Nc2ccc(N(CC(CC)CCCC)CC(CC)CCCC)cc2NC(=O)CC)c(C#N)c1 (centres unmarked)"
  ε (molar absorbance coefficient): "80,000 L · mol^−1 · cm^−1"

[in] Could you share which ε (molar absorbance coefficient) value was measured for CCCCC(=O)Nc1cc(N(CC(CC)CCCC)CC(CC)CCCC)ccc1N=Nc1c(C#N)cc(C(F)(F)F)cc1C#N (centres unmarked) ?
[out] 75,000 L · mol^−1 · cm^−1

[in] Check C=CCn1c(N=Nc2ccc(N(CCC)CCC)cc2NC(C)=O)nc(C#N)c1C#N [Comparative Example Compound, reference compound] too.
[out] 34,000 L · mol^−1 · cm^−1

[in] Check CCCCC(CC)CN(CC(CC)CCCC)c1ccc(N=Nc2c(C#N)cc(C(F)(F)F)cc2C#N)c(NC(C)=O)c1 (centres unmarked) too.
[out] 80,000 L · mol^−1 · cm^−1

[in] Check CCCCC(CC)COC(=O)c1cc(C#N)c(N=Nc2ccc(N(CC(CC)CCCC)CC(CC)CCCC)cc2NC(C)=O)c(C#N)c1 (centres unmarked) too.
[out] 80,000 L · mol^−1 · cm^−1

---

Consider the following molecules and their measured ε · C readings.
# assay-method-text: Solubility C in n-decane at 5° C. (saturated solution, absorbance)
# Format: physicochemical
# setup-conditions: product of ε and solubility C in n-decane at 5° C.

These solved cases illustrate the format of a correct answer.
- molecule: "CCCCC(CC)CN(CC(CC)CCCC)c1ccc(N=Nc2c(C#N)cc(C(F)(F)F)cc2C#N)c(NC(C)=O)c1 (centres unmarked) [Example Compound 1]"
  ε · C: "1,600 cm^−1"
- molecule: "CCCCC(CC)COC(=O)c1cc(C#N)c(N=Nc2ccc(N(CC(CC)CCCC)CC(CC)CCCC)cc2NC(=O)CC)c(C#N)c1 (centres unmarked) [Example Compound 2]"
  ε · C: "13,000 cm^−1"
- molecule: "CCCCC(=O)Nc1cc(N(CC(CC)CCCC)CC(CC)CCCC)ccc1N=Nc1c(C#N)cc(C(F)(F)F)cc1C#N (centres unmarked) [Example Compound 3]"
  ε · C: "26,000 cm^−1"

[in] Could you share which ε · C value was measured for C=CCn1c(N=Nc2ccc(N(CCC)CCC)cc2NC(C)=O)nc(C#N)c1C#N [Comparative Example Compound, reference compound] ?
[out] 10 or less cm^−1

[in] Check CCCCC(CC)COC(=O)c1cc(C#N)c(N=Nc2ccc(N(CC(CC)CCCC)CC(CC)CCCC)cc2NC(C)=O)c(C#N)c1 (centres unmarked) [Example Compound 4] too.
[out] 6,000 cm^−1

---

# assay-method-text: Absorption spectrum of n-decane solution (absorption maximum wavelength, molar absorbance coefficient, color)
# Format: physicochemical
# setup-conditions: color of the solution of the compound in n-decane
measured-property: Color Tone

These solved cases illustrate the format of a correct answer.
- compound: "CCCCC(CC)COC(=O)c1cc(C#N)c(N=Nc2ccc(N(CC(CC)CCCC)CC(CC)CCCC)cc2NC(=O)CC)c(C#N)c1 (centres unmarked) [Example Compound 2]"
  Color Tone: "violet"
- compound: "CCCCC(CC)CN(CC(CC)CCCC)c1ccc(N=Nc2c(C#N)cc(C(F)(F)F)cc2C#N)c(NC(C)=O)c1 (centres unmarked) [Example Compound 1]"
  Color Tone: "violet"
- compound: "C=CCn1c(N=Nc2ccc(N(CCC)CCC)cc2NC(C)=O)nc(C#N)c1C#N [Comparative Example Compound, reference compound]"
  Color Tone: "red"
- compound: "CCCCC(CC)COC(=O)c1cc(C#N)c(N=Nc2ccc(N(CC(CC)CCCC)CC(CC)CCCC)cc2NC(C)=O)c(C#N)c1 (centres unmarked) [Example Compound 4]"
  Color Tone: "violet"

In the following, a different compound is considered.
[in] Could you share which Color Tone value was measured for CCCCC(=O)Nc1cc(N(CC(CC)CCCC)CC(CC)CCCC)ccc1N=Nc1c(C#N)cc(C(F)(F)F)cc1C#N (centres unmarked) [Example Compound 3] ?
[out] violet

---

# assay-method-text: Solubility of solvent in water
# Format: physicochemical
# setup-conditions: pure water, thermodynamic from solid, 25° C.
# Experimental: The solvent was sandwiched between opposed parallel-plate ITO electrode-attached glass substrates having an electrode spacing of 50 μm, and using LCR Meter ZN2371 (manufactured by NF Corporation), the equivalent parallel capacitance thereof was measured at a measurement temperature of 22° C. and at a frequency of 1 kHz, given a test signal voltage of 5 V. Through calculation according to the following equation, the relative permittivity of the solvent was determined. […]
measured-property: solubility at 4 h

[in] Could you share which solubility at 4 h value was measured for CCCCCCCCCC [n-decane] ?
[out] ≤ 1 µg/mL

---

# assay-method-text: Absorption spectrum of n-decane solution (absorption maximum wavelength, molar absorbance coefficient, color)
# Type: physicochemical
# setup-conditions: 1 mg in 100 ml n-decane, quartz cell
measured-property: Maximum Absorption Wavelength (nm)

- molecule: "C=CCn1c(N=Nc2ccc(N(CCC)CCC)cc2NC(C)=O)nc(C#N)c1C#N [Comparative Example Compound, reference compound]"
  unit-info: "nm"
  Maximum Absorption Wavelength: 512
- molecule: "CCCCC(CC)CN(CC(CC)CCCC)c1ccc(N=Nc2c(C#N)cc(C(F)(F)F)cc2C#N)c(NC(C)=O)c1 (centres unmarked)"
  unit-info: "nm"
  Maximum Absorption Wavelength: 584
- molecule: "CCCCC(CC)COC(=O)c1cc(C#N)c(N=Nc2ccc(N(CC(CC)CCCC)CC(CC)CCCC)cc2NC(=O)CC)c(C#N)c1 (centres unmarked)"
  unit-info: "nm"
  Maximum Absorption Wavelength: 591
- molecule: "CCCCC(=O)Nc1cc(N(CC(CC)CCCC)CC(CC)CCCC)ccc1N=Nc1c(C#N)cc(C(F)(F)F)cc1C#N (centres unmarked)"
  unit-info: "nm"
  Maximum Absorption Wavelength: 585
- molecule: "CCCCC(CC)COC(=O)c1cc(C#N)c(N=Nc2ccc(N(CC(CC)CCCC)CC(CC)CCCC)cc2NC(C)=O)c(C#N)c1 (centres unmarked)"
  unit-info: "nm"
  Maximum Absorption Wavelength: 590

---

# assay-method-text: Solubility C in n-decane at 5° C. (saturated solution, absorbance)
# Type: physicochemical
# setup-conditions: organic solvent or mixture, thermodynamic from solid; saturation solubility in n-decane at 5° C.
measured-property: solubility at 24 h (mM)

- compound: "CCCCC(CC)COC(=O)c1cc(C#N)c(N=Nc2ccc(N(CC(CC)CCCC)CC(CC)CCCC)cc2NC(=O)CC)c(C#N)c1 (centres unmarked)"
  measured-property: "solubility at 24 h"
  unit-info: "mM"
  assay-value: 160

I = CCCCC(CC)CN(CC(CC)CCCC)c1ccc(N=Nc2c(C#N)cc(C(F)(F)F)cc2C#N)c(NC(C)=O)c1 (centres unmarked)
II = CCCCC(CC)COC(=O)c1cc(C#N)c(N=Nc2ccc(N(CC(CC)CCCC)CC(CC)CCCC)cc2NC(C)=O)c(C#N)c1 (centres unmarked)
III = CCCCC(=O)Nc1cc(N(CC(CC)CCCC)CC(CC)CCCC)ccc1N=Nc1c(C#N)cc(C(F)(F)F)cc1C#N (centres unmarked)
[in] Hello, I need these entries ordered by solubility at 24 h, highest reading first. Thanks! # output: labels, in the requested order
[out] III, II, I
